FYI, the data here is from PubChem BioAssay AID1159580.

Please go through the items and note down their normalized growth.
experiment: chemical genetic growth profiling, strain panel (AID 1159580);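 also: tested at 20 µM; growth read once vehicle control cultures reached saturation at 30 °C; 1 = growth at the plate median or of vehicle wells; lower values mean less growth of the strain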; conditions: S. cerevisiae deletion strains, growth OD, locus YLR384C, strain iki3, stronger effect = lower value
Out of some 5,500 compounds screened, about 2,000 (36%) were called active. Another 18% or so got no clear call; they are omitted. The list shows a part of the results.
One number for each entry.

1. CC(=O)O[C@H]1C[C@@H](OC(C)=O)C(C)(C)C2CC(=O)[C@]3(C)C(CC[C@@]4(C)[C@H](c5ccoc5)OC(=O)[C@H]5O[C@]543)[C@]21C (some centres undefined)    0.984

Fill in normalized growth for each of the 8 compounds listed.
1. Nc1cc(-c2ccncc2)c[nH]c1=O
2. Cc1cc(=O)oc2c(O)c(O)ccc12
3. N[C@@H]1[C@@H](O)[C@H](O)[C@@H](CO)O[C@H]1O
4. C=C1C2CC[C@@]3(C)[C@H](c4ccoc4)OC(=O)C[C@]13O[C@H]1CC(=O)C(C)(C)C(CC(=O)OC)[C@@]21C (some centres undefined)
5. COC(=O)CCC(C)[C@H]1CCC2C3C(C[C@H](O)[C@@]21C)[C@@]1(C)CC[C@@H](O)C[C@H]1C[C@H]3O (some centres undefined)
6. O=C(Nc1ccccc1)Nc1ccccc1
7. S=P(N1CC1)(N1CC1)N1CC1
8. Cc1nc2ccccn2c(=O)c1CCN1CCC(C(=O)c2ccc(F)cc2)CC1

Response line:
[0.966, 0.954, 1.03, 0.964, 1, 0.967, 0.994, 0.985]
